Source of measurements: patent US20250270304A1

Biological target: T1, Latent Activin A (human, UniProt P08476 21-426, limits assumed)
T1 construct: also called INHBA latent
T1 sequence: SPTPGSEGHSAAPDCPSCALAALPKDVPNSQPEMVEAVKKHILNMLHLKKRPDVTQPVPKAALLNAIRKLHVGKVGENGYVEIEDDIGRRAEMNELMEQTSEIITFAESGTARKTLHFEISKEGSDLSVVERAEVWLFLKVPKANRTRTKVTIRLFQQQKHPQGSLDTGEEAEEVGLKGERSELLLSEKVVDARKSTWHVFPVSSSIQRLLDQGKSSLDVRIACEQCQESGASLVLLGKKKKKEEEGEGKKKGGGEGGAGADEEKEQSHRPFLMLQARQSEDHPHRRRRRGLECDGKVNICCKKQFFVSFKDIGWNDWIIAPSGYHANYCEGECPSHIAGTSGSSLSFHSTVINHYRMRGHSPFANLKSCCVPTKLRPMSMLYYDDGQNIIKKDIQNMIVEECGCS
Assay: ELISA, coated antigen, OD450
Description: Antibodies were re-expressed in 40 mL cultures of Expi293 cells and purified using protein G magnetic sepharose beads (Cytiva, Marlborough, MA) to provide larger quantities for secondary screening. Secondary screening included dose responses in both functional assays described above (SMAD nuclear localization and fibroblast activations assays) as well as in binding assays to the same antigens listed in Table 3. […]
Property Measured: fold-change of OD 450 over negative control (BSA) (fold)
Quick note: give the figure in fold, leave out the unit.

Prompt: Looking for the measured fold-change of OD 450 over negative control (BSA) of AB433 (antibody, IgG1, V domains shown) VH: QVQLQESGPGLVKPSQTLSLTCTVSGFPLSTSRMGVNWIRQPPGKGLEWIGYINPSGATDYNPSLKSRVTMSVDTSKNQFSLKVNSVTAADTAVYYCARAGYPDVWGKGTTVTVSS VL: EIVMTQSPATLSLSPGERATLSCRASQSVRTSLAWYQQKPGQAPRLLIYDTSIRAAGIPARFSGSGSGTDFTLTISSLEPEDFAVYYCQQYGNWHFGGGTKVEIK , can you help?
Completion: 10.5

Prompt: Which fold-change of OD 450 over negative control (BSA) reading was recorded for the binder AB432 (antibody, IgG1, V domains shown) VH: QVQLQESGPGLVKPSQTLSLTCTVSGVSLSNVRMGVNWIRQPPGKGLEWIGYVNPSGSTDYNPSLKSRVTMSVDTSKNQFSLKVNSVTAADTAVYYCARAGYPDVWGKGTLVTVSS VL: EIVMTQSPATLSLSPGERATLSCRASQSISSSQLAWYQQKPGQAPRLLIYGASTRATGIPARFSGSGSGTDFTLTISSLEPEDFAVYYCQQYNDRPRTFGGGTKVEIK ?
Completion: 10.4
